- experimental_details: acute oral toxicity (LD50) to male mice
- recorded_conditions: mouse, in vivo
Recorded LD50, one value per entry.
measurement_kind: LD50

molecule_smiles | measurement_kind | result
COC(=O)C(C(=O)OC)=C1SC=CS1 | LD50 | > 6000 mg/kg
CCCCOC(=O)C(C(=O)OCCCC)=C1SC=CS1 | LD50 | > 6000 mg/kg
CCCOC(=O)C(C(=O)OCCC)=C1SC=CS1 | LD50 | > 6000 mg/kg
